- Tested on: M14 melanoma
- EXPERIMENT: NCI-60 one-dose screen, 48 h
- TEST CONDITIONS: 10 µM unless noted
The panel holds about 83,000 compounds, 20% with a hit somewhere; the sample as a whole holds those more often. Active and inactive are the calls of the source. The calls were made as follows: active = growth percent below 10; inactive = the rest.
Select the correct class. Options are 1 for active, 0 for inactive and nothing else.

Q: Record request — test call for Cc1cc(C)nc(SC2=C(Nc3ccc(O)cc3)C(=O)N(Cc3ccccc3)C2=O)n1
Ans: 0

Q: Record request — test call for CC[C@@H](C(=O)[C@@H](C)[C@@H](O)[C@H](C)[C@@H]1O[C@@H]([C@@H](CC)C(=O)O)CC[C@@H]1C)[C@H]1OC2(C=C[C@@H](O)[C@]3(CC[C@@](C)([C@H]4CC[C@](O)(CC)[C@H](C)O4)O3)O2)[C@H](C)C[C@@H]1C (stereo partly drawn)
Ans: 1

Q: Record request — test call for N#Cc1cnn(-c2nc3c(Cl)cccc3s2)c1N
Ans: 0

Q: Record request — test call for CNC(=O)c1cc(Oc2ccc(NC(=O)Nc3ccc(Cl)c(SC)c3)c(F)c2)ccn1
Ans: 0

Q: Record request — test call for COc1ccc(-c2nc3ccc(-c4nc5ccc(N6CCN(C)CC6)cc5[nH]4)cc3[nH]2)cc1OC
Ans: 0

Q: Record request — test call for COc1ccc(-n2nc(C)c3c(Nc4ccc(NC(=O)Nc5c(Cl)cccc5Cl)cc4)ncnc32)cc1
Ans: 0

Q: Record request — test call for CCCCN1CCCn2c1nc1c2c(=O)n(CCC)c(=O)n1CCC
Ans: 0

Q: Record request — test call for O=C1NC(=S)NC(=O)C1CC(=O)n1c(-c2ccccc2)nc2ccccc21
Ans: 0

Q: Record request — test call for CCOC(=O)c1c(C(=O)OCC)c2cc(-c3ccn4c(C(=O)c5ccccc5)c(C(=O)OCC)c(C(=O)OCC)c4c3)ccn2c1C(=O)c1ccccc1
Ans: 0

Q: Record request — test call for COc1ccc(/C=N/C2=C(C#N)C(c3ccc(N(C)C)cc3)c3ccc4ccccc4c3O2)cc1 (stereo not drawn)
Ans: 0

Q: Record request — test call for O=Nc1c(O)c(Cl)cc2ccccc12
Ans: 0

Q: Record request — test call for O=C1OC(c2ccccc2)C(O)=C1c1ccccc1 (stereo not drawn)
Ans: 0

Q: Record request — test call for CN1CCN(CCCOc2cccc3nc(Nc4ccc(Cl)c(F)c4)ccc23)CC1
Ans: 1

Q: Record request — test call for COc1cc2c(cc1O)CC[C@@H]1[C@@H]2CC[C@]2(C)[C@@H](OCCCN(C)C)CC[C@@H]12
Ans: 1

Q: Record request — test call for COc1ccc(/C=C\c2cc(OC)c(OC)c(OC)c2)cc1OCC(=O)Nc1ccc2nc(C)sc2c1
Ans: 0

Q: Record request — test call for CC(C)n1c(/C=C/[C@@H](O)C[C@@H](O)CC(=O)O)c(-c2ccc(F)cc2)c2ccccc21
Ans: 0

Q: Record request — test call for Oc1ccccc1-c1nnc(CNc2ccc(Cl)cc2)o1
Ans: 0

Q: Record request — test call for C=C(C)[C@@H]1CC[C@]2(C(=O)OC)CC[C@]3(C)[C@H](CC[C@@H]4[C@@]5(C)C/C(=C/c6cccc(I)c6)C(=O)C(C)(C)[C@@H]5CC[C@]43C)[C@@H]12
Ans: 0

---

- Tested on: DU-145 prostate
- EXPERIMENT: NCI-60 one-dose screen, 48 h
- TEST CONDITIONS: 10 µM unless noted
- Experimental: Cells are grown in 96 well plates and exposed to the test compound for 48 hours. Compounds are tested at a single concentration, which is 10^-5 M for most compounds. The reported endpoint is percent growth (GI% or GIPRCNT), where numbers from 0 - 100% represent growth inhibition, and numbers from -100% - 0 represent cell death. For example, a value of 40 represents 60% growth inhibition. A value of 0 means no net growth occurred over the course of the experiment. […]
Compounds without any hit were thinned out: in the full panel of roughly 83,000, 20% have a hit. The source made the active and inactive calls. The calls were made as follows: active = growth percent below 10; inactive = the rest.
Select the correct class. Options are 1.0 = active, 0.0 = inactive and nothing else.

Q: Record request — test call for CN1CCN=C1c1ccc(NC(=O)c2ccc(C(=O)Nc3ccc(C4=NCCN4C)cc3)cc2)cc1
Ans: 0.0

Q: Record request — test call for CCOC(=O)c1sc2nc(-c3cccc(OC)c3)nc(N3CCOCC3)c2c1C
Ans: 0.0

Q: Record request — test call for N#Cc1c(N)n(CCNC(=O)c2ccccc2)c2nc3ccccc3nc12
Ans: 0.0

Q: Record request — test call for O=c1c(F)cn(Cc2ccccc2CCl)c(=O)n1Cc1ccccc1CCl
Ans: 1.0

Q: Record request — test call for COc1ccc(Nc2nc(SC)nc(-c3cccc([N+](=O)[O-])c3)c2C#N)cc1
Ans: 0.0

Q: Record request — test call for CCN(CC)c1ccc2c(c1)Oc1nc(N)c(C#N)c(N)c1C2Sc1ccc(SC)cc1 (stereo not given)
Ans: 1.0

Q: Record request — test call for CS(=O)(=O)c1ccc(-n2nc(-c3ccc(Br)cc3)c3ccccc3c2=O)cc1
Ans: 0.0

Q: Record request — test call for COc1ccc2c(c1)C(=O)/C(=C/c1cccnc1)CC2
Ans: 0.0

Q: Record request — test call for C=C1c2nc3ccccc3n2C=C(c2ccc(OC)cc2)N1Cc1ccccc1
Ans: 0.0

Q: Record request — test call for Nc1n[nH]c2ccc([C@@H]3Nc4cc5c(cc4[C@H]4C6CCC(C6)[C@@H]34)C(=O)NC5)cc12 (stereo not given in full)
Ans: 1.0

---

- Test system: NCI-H322M lung
- EXPERIMENT: NCI-60 one-dose screen, 48 h (100 = growth as untreated, 0 = no growth, -100 = all killed)
- TEST CONDITIONS: 10 µM unless noted
About 83,000 compounds went through this panel and 20% of them were active in at least one assay; those are over-represented in the sample as a whole. Activity calls are given as the source filed them. Rule for the calls: active = growth percent below 10; inactive = the rest.
MEASURE NAME: growth

The value of growth measured for the compound COc1cc2nc(N3CCCC3)nc(Nc3ccccc3)c2cc1OC turned out to be 19.3% (inactive)

The value of growth measured for the compound C=CC(COC(c1ccccc1)(c1ccccc1)c1ccccc1)N(CC)CC (stereo not given) turned out to be 87% (inactive)

The value of growth measured for the compound COc1cc(-c2nn(C)nc2-c2cc3ccccc3s2)cc(OC)c1OC turned out to be 44.9% (inactive)

The value of growth measured for the compound COc1ccc(CCNc2nc3c(c(=O)n(Cc4ccc(Br)cc4)c(=O)n3C)n2C)cc1OC turned out to be 93.8% (inactive)

The value of growth measured for the compound OC(c1cc2cc(Cl)c(Cl)cc2c2cc(C(F)(F)F)ccc12)C1CCCCN1 (stereo not given) turned out to be -8.7% (active)

The value of growth measured for the compound NC(=O)c1cc(Br)ccc1NC(=O)/C=C/c1ccccc1 turned out to be 76.1% (inactive)

The value of growth measured for the compound COc1cc(/C=C/C(=O)c2ccc(O)c(CN3CCN(c4cc5c(cc4F)c(=O)c(C(=O)O)cn5C4CC4)CC3)c2)cc(OC)c1OC turned out to be 30% (inactive)

The value of growth measured for the compound COc1ccc(-n2nc(C)c3c(Nc4ccc(NC(=O)Nc5cccc(C(F)(F)F)c5)cc4)ncnc32)cc1 turned out to be 5.43% (active)

The value of growth measured for the compound O=C(N(c1ccccc1)c1ccccc1)n1ccc2nc(Cl)nc(Cl)c21 turned out to be 67.9% (inactive)

The value of growth measured for the compound Cc1cc2nc3[nH]c4ccccc4c3nc2cc1C turned out to be 98.7% (inactive)

The value of growth measured for the compound Cc1nn(-c2ccc(F)cc2)c2ncnc(Nc3ccc(NC(=O)Nc4ccc(Cl)c(C(F)(F)F)c4)cc3)c12 turned out to be 67.5% (inactive)

The value of growth measured for the compound O=C1Nc2ccc(Br)cc2C12Oc1ccccc1C1CC(c3ccc(F)cc3)=NN12 (stereo not given) turned out to be 96.3% (inactive)

The value of growth measured for the compound Clc1ccc2c(NCCNc3nc(N4CCOCC4)nc4ccccc34)ccnc2c1 turned out to be 15.9% (inactive)

The value of growth measured for the compound O=C(Oc1cccnc1)c1ccsc1Nc1ccnc(C(F)(F)F)c1 turned out to be 104% (inactive)

The value of growth measured for the compound N#CN1CCC[C@H]1C(=O)N1CCc2c(-c3[nH]nc4ncccc34)cccc21 turned out to be 20.6% (inactive)

The value of growth measured for the compound Cc1cc(N2CCN(c3ccnc4cc(Cl)ccc34)CC2)nc(N2CCOCC2)n1 turned out to be 95.3% (inactive)

The value of growth measured for the compound O=C(CN1C(=O)/C(=C/c2ccc(Cl)cc2)SC1=S)NCCCN1CCOCC1 turned out to be 104% (inactive)

The value of growth measured for the compound C#CC(F)(F)[C@]1(O)CC[C@H]2[C@@H]3CCC4=CC(=O)CCC4=C3[C@@H](c3ccc(C4CC4)cc3)C[C@@]21C turned out to be 88.4% (inactive)

The value of growth measured for the compound COc1cc2nc(N3CCCC3)nc(NCc3ccccc3)c2cc1OC turned out to be 79.7% (inactive)

The value of growth measured for the compound CC(C)(C)c1cc(C(C)(C)C)cc(S(=O)(=O)Nc2cc3ccccc3cc2C(=O)NCCN)c1 turned out to be 64.2% (inactive)

Hey, just so you know, these numbers are from PubChem BioAssay (NCI).
